Catalogue of pKd values
- SUBJECT_OF_TEST: PaKPR2 (Pseudomonas aeruginosa)
- PROTOCOL_DETAILS: ITC
- Assay type: binding
Interpret pKd as the negative base-10 log of the concentration measured in mol/L.

{"COMPOUND": "CC[C@H](C)C(=O)C(=O)O [3methyl 2 ketopentanoate]", "NUMERIC_READOUT": 4.95}

Challenge: What does the record list as pKd for "NC(=O)C1=CN([C@@H]2O[C@H](COP(=O)(O)OP(=O)(O)OC[C@H]3O[C@@H](n4cnc5c(N)ncnc54)[C@H](OP(=O)(O)O)[C@@H]3O)[C@@H](O)[C@H]2O)C=CC1" ?
Response given: 5.11

---

- SUBJECT_OF_TEST: PaKPR2 (Pseudomonas aeruginosa)
- PROTOCOL_DETAILS: ITC
- Format: binding
PROPERTY: Kd
Answer format: number, then unit.

Challenge: What does the record list as Kd for CC(C)CC(=O)C(=O)O [2-ketoisocaproate] ?
Response given: 3.05 µM

---

- SUBJECT_OF_TEST: PaKPR2 (Pseudomonas aeruginosa, UniProt A0A0H2Z9K5)
- Sequence (A0A0H2Z9K5 1-315): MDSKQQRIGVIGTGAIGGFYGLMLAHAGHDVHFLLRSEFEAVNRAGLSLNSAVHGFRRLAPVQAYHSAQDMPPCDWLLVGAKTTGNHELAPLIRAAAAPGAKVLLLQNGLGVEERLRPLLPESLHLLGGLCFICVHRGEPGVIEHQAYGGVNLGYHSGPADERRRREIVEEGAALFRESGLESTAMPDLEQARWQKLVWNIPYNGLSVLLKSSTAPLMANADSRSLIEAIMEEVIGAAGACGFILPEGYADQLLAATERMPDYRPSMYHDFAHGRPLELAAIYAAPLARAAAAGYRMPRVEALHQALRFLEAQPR
- PROTOCOL_DETAILS: ITC
- Format: binding
Catalogue of pKd values
Interpret pKd as the negative base-10 log of the concentration measured in mol/L.

{"MOLECULE": "O=C(O)C(=O)c1ccccc1 [Phenyl glyoxylate]", "NUMERIC_READOUT": 5.45}

Challenge: What does the record list as pKd for O=C(O)C(=O)c1ccco1 [2-Furyl glyoxylate] ?
Response given: 6.41

Challenge: Follow-up item: "NC(=O)C1=CN([C@@H]2O[C@H](COP(=O)(O)OP(=O)(O)OC[C@H]3O[C@@H](n4cnc5c(N)ncnc54)[C@H](O)[C@@H]3O)[C@@H](O)[C@H]2O)C=CC1"
Response given: 4.01

Challenge: Follow-up item: "O=C(O)C(=O)c1cccs1"
Response given: 5.87

Challenge: Follow-up item: "O=C(O)C(=O)CCc1ccccc1"
Response given: 5.04
